Source: the supplement of paper PMC9732359

Kindly supply the reported protein stability index values for the records listed here.
- Assay protocol: protein stability index of a GFP-peptide fusion (yeast GPS) (PSI 1-4); higher = more stable; sorted into four equal gates, so the index is relative within each strain
- Cond: ubr1∆
Give a plain numeric answer without units written out.

// protein stability index lookup, key: IRKYGLNICRQCFREKA [RPS29A]
1.73

# iterate: LSSIEASLKIKNATDLQ [SMC3]
2.4

Try this sequence too: PAMAMEDLKNFIFQIIE [SRB8]
1.71

Next: NGASVPINLHPSKLVIT [RPL26A]
1.41

Try the sequence LRLKLFLYEILSSLKSF [SRB8]
2.11

// query: TDLMSIVQELLDKNLIK [RPC34]
3.15

What do we get for ILKKSLMTSHTKGDTSK [RTT102] ?
3.05

Subsequent entry: HARGGGAISAVAATNTP [SRP54]
2.3

Thanks! And LHYIPKYNRYEKRHKNV [RPS11A] ?
2.26

====

- Assay protocol: protein stability index of a GFP-peptide fusion (yeast GPS) (PSI 1-4); higher = more stable; sorted into four equal gates, so the index is relative within each strain
- Cond: doa10∆
Would you kindly list protein stability index for each of these sequences?
Lab note: record the figure alone, no unit after it.

Given the sequence VQSGQIYINKSVPTNSA [RET1] , what is its reported protein stability index?
3.29

Let us now turn to QYYLSVLNQQLPIESQF [BRR2]
2.28

Same again, this time with FVRQAAMIALSMILIQQ [RPN2]
1.35

Now consider LSSETGIKLALDPNLIT [SRB4] and answer again.
2.6

Thanks! And CIIFMDEVDAIGGRRFS [RPT4] ?
2.38

Follow-up entry: NHSLQHQNESSAASIPP [RPN4]
2.94

Next: VDFEKFETFLVDVNNKF [SIN4]
3.23

Entry VEELPTFHDYDMVKLDI [RRP42] please
2.51

Query RHMVDDKIHARARGPMQ [RPB2] next
3.38

Same again, this time with LRSIYHQFHDILEEKTD [NSL1]
2.22

Same question, QEYAIEMKIGSIESKLE [SMC1] this time
2.84

What about LGPLSYQNMAFITAKDK [YJR042W/NUP85] ?
2.43

Repeat for the following sequence: ADNVDKILEQFEYVLYP [FAS2]
2.05

Entry SFTSQGTISIQLKNGLL [MTR3] please
2.66

Lookup VFEISENNSDSNSNNNG [SWI1]
2.89

Also KRYTSEGTRNRFSYSPP [YMR129W/POM152] , if possible.
3.09

Same read-out for PSRKDCMEVASAFMKFS [BRR2] ?
2.4

What would you report for QKLPQYIIQGSNTNDNI [RGR1] ?
3.14

Likewise for KVKNQGADVTNTTQDNG [YCS4] ?
3.17

Input GFQDRSLPHFPKNSKTP [RPO31]
2.7

Same question for DESSGTSRIDEEKPGLI [SMC4] please.
2.89

Now try SPAGKYKRQKSSLLYTY [ESC2] .
1.24

====

- Assay protocol: protein stability index of a GFP-peptide fusion (yeast GPS) (PSI 1-4); higher = more stable; sorted into four equal gates, so the index is relative within each strain
- Cond: san1∆
So I've got a bunch of sequences here, and I need their protein stability index values.
# print the numeric value only

I am curious: what protein stability index value has been reported for MCGVIVKQYNKKWPQFY [SIN4] ?
1.62

One more sequence: SEHFLYLAKELNLTGPK [RPN1]
2.35

Please give the result for PNNSRDDYKDLTCSLYE [IRR1] too.
3.18

Repeat with QTNIWEENWDDVEVDDD [SEM1]
3.37

Repeat with LAMNDDDFLSKKRKAGR [SNF2]
3.16

Okay, and LGDMAVCFNNLVDENTD [YCS4] ?
2.72

Further, for GLGVLTHRNKDGTGVRV [FAS1] ?
3.58

Subsequent entry: EELLLKDLEIRKLEISS [GAL11]
3.18

====

Answer each item with its documented protein stability index.
- Assay protocol: protein stability index of a GFP-peptide fusion (yeast GPS) (PSI 1-4); higher = more stable; sorted into four equal gates, so the index is relative within each strain
- Cond: san1∆
A bare number is all that is needed in reply.

What does the data say about its protein stability index? Entry: TTNMNVNNCIWALKSSL [RGR1]
1.36

Moving on to the next sequence: LTKTTVNISAVDNTTEQ [YCG1]
2.88

Further, for PTVHNSTAAAPIAAPKK [PGD1] ?
2.83

Param item: NGTISKTGKKNKVAKKN [SRP14]
3.09

Please answer likewise for VVLYNYYLGQYYGCLEN [CSN12]
2.51

For HGILDDLETSLSQSSSY [MED2] then?
3.12

Could you do the same for TISILAAPSGNYKQLTL [RRP43] , please?
1.92

Try ERVIVVTGFAEVGPWGS [FAS2] next.
2.03

Param item: TFHDELNLKFKEKWPSL [YML103C/NUP188]
2.81

Okay, and IERDSLVDDENEPSQSL [BRN1] ?
3.18

// repeat for YDPKDALKNACNSIINK [RPB11] and report
3.2

Repeat for the following sequence: PHTVIRRKTTKQNSSSD [YDL088C/ASM4]
3.01

====

- Assay protocol: protein stability index of a GFP-peptide fusion (yeast GPS) (PSI 1-4); higher = more stable; sorted into four equal gates, so the index is relative within each strain
- Cond: doa10∆
For each entry below, report its protein stability index value.
Answer with a bare number; do not write a unit.

Item under review: KKCPFTGLVSIRGKILT [RPS11A] . Reported protein stability index?
1.7

Here is the next sequence: TAGKTSVKSARTSTRGR [SNF2]
3.44

Note, next up: TASSLAHDYNNDQDMFT [YML103C/NUP188]
3.19

====

- Assay protocol: protein stability index of a GFP-peptide fusion (yeast GPS) (PSI 1-4); higher = more stable; sorted into four equal gates, so the index is relative within each strain
- Cond: pdr5∆
Assign class by protein stability index: not lower than 3 means Condition met; lower than 3 means Condition not met.

Decide: protein stability index of VDIQIINQYQLLYNLKN [SWI1] >= 3?
Condition not met

Next record, please: NFKSYRGVTKVGFGESN [SMC1]
Condition not met

// query: LIAIVSKLLQTTLKLSP [NUT1]
Condition not met

What do you get for ESMAYTAFQTQRTAQDR [YML031W/NDC1] ?
Condition met

And the next one, NIFSEAVKNKYNVGKQL [PRP28] ?
Condition not met

Continue with KVVIPNLLCYYNLRSLN [RPN3]
Condition not met

Now the same for RHMVDDKIHARARGPMQ [RPB2]
Condition met

Record: CGDSIICNTLNIAKDLK [SMC1]
Condition not met

Subsequent entry: ERVIVVTGFAEVGPWGS [FAS2]
Condition not met

Can you check KKLDYVLALKVEDFLER [RPS9A] next?
Condition not met

Now the same for LITSSARKELPIFDYIH [SIR3]
Condition not met

Entry to check: DMSKILVDQGFNYSGKD [RET1]
Condition met

Moving on to the next sequence: QKKARTILQHLSEAWRC [PRP8]
Condition not met

Now this one: PQQSGKKLLINKDASLA [DPB4]
Condition not met

Further, for QNDILQESFINTMSAWV [FAS2] ?
Condition not met

Consider next the sequence PSTDKNEKKTETNAKPF [YLR335W/NUP2] in the same way.
Condition met

Param item: SYHNGNLKGRPYTGWVD [FAS2]
Condition met

Would you kindly repeat that for GTPLLEVRGQVPVIESA [SNU114] ?
Condition not met

Then what about the sequence NANRVFRTRFQDGTSVV [SMC2] ?
Condition not met

// same read-out, input: TWNGSPFDNSTEEKCKN [YJL039C/NUP192]
Condition met

Same lookup for ALLRENQDSVKTYALES [RPN2] , please.
Condition not met

// repeat for ITLVEPEILRFKVYEPL [RPS16A] and report
Condition met

Lookup QDRQQLLPLVVSNISCL [ECM29]
Condition not met

Another sequence to check: RLRQFNLQPISTPENVP [SMC4]
Condition not met

Continue with ENDEEDIYMHDVNSASK [RRP4]
Condition met

Same read-out for GAHKFLDTYLPEDLNSL [SIR2] ?
Condition not met

And for KCQELVTNIRRIIQDNI [RRP46] ?
Condition not met

What would you report for MQANTNALRRNLLKDEG [SSN3] ?
Condition met

Ok, now LEAVNSMIEKGGDWERR [RPN7]
Condition met

Note, next up: IARLYSCISISDIISML [RRI2]
Condition not met

Another sequence to check: RDLKPSNLEKLLFINSS [YML103C/NUP188]
Condition not met

Request: LLLTIQLLIIEKEWENA [SRP72]
Condition not met

Try this sequence next: ILDITDEELVSHFVSAV [RPP0]
Condition not met

What do you get for MNGRSLTYAQQQLNKQR [SNF6] ?
Condition met

Another sequence to check: TVSPDFVAATTNAGYTI [FAS1]
Condition not met

Lookup SNGLLSIVLLLLSQFGI [YML103C/NUP188]
Condition not met

Same question, ERLHELKKLQSDIESAN [SMC1] this time
Condition met

Next entry: TENAIEEKVIERAAQKL [ISW2]
Condition not met

Moving on to MADLQKQENSSRFTNVS [YMR153W/NUP53]
Condition met

Now the sequence CPYCYKKRREYFPEGYN [SIR2]
Condition not met

Another: PIFNYIFTEKIYKSIFN [YJL039C/NUP192]
Condition not met

Moving on to ELISFKERTKSLEHELK [YIL149C/MLP2]
Condition not met

Same for PVIDYELKEITSLPDWC [BRR2]
Condition not met

Likewise for LNVVMKNLERLRGEYND [SMC4] ?
Condition met

Now try LMETLRTLRRKGDINPE [RPB2] .
Condition met

Param item: KDGGDKPPSSAFNFSFN [YAR002W/NUP60]
Condition met

Also need FKLGKFNYVAVGDVSNL [QCR2] , thanks.
Condition not met

What do we get for DDVISNAGTNDNSFNEL [MCD1] ?
Condition met
